The measurements presented in this section are drawn from the supplement of paper PMC12764529.

// values below are reported folding stability dG unfold
experimental protocol: folding stability dG unfold from trypsin proteolysis; higher = more stable
experimental readout: folding stability dG unfold (kcal/mol)

# biosequence, unit name, endpoint result
records = [
    ("SAGEKFEPVEEKELTLKITLKDKDGNEKEVEIKVKVEVVKNPDGTLTVRAEITFEDGTKIELELEIKLPSAG [r5_57_TrROS_Hall]", "kcal/mol", 3.27),
    ("SAGGSAMSIPLEELIEYVKKPGYKITEKKLPNGTLEITITNPKTGKTTKVTVYPPPTFSVEIKPDPSAGGSA [r15_442_JUSTAS]", "kcal/mol", 1.28),
    ("SAGGMVVTSESREPDGTWTVRTVYRDPAGNLTITSSSTSSATVTRKDSAGTPSTAASTTNTYTSAALSAGGS [r8_270_JUSTAS]", "kcal/mol", 0.216),
    ("SAGGKMKLEVEILENEGTILVRFHFGDKVLEIPLPFPNLTPEDVKEAAEEIAKKLKEEYNIEEVEIESAGGS [r16_249_TrMRF]", "kcal/mol", 2.33),
    ("SAGSKVPVTATATFSDKAELEKTVADIKAKTGYDIEVTYDPNSNSYTITVNTTDEVVKMLKEKGFKLESAGG [r19_306_JUSTAS]", "kcal/mol", 2.33),
    ("SAGGSAGGSDTPTINIPPGMGNPEQAIEQLKEIREHFPPGKKISISAPGGWKPELKEAGLITVSAGGSAGGS [r12_992_TrROS]", "kcal/mol", -0.37),
    ("SAGGSAGGSAGGGMMKTVLISLEGVDPSGGPSRRVEIELTLSPEEIPKVIEELAKAGRVLSAGGSAGGSAGG [r7_618_JUSTAS]", "kcal/mol", 0.533),
    ("SAGGSAGGSDTLEYEVPLEDGSTIRITLFPDGTARVELEDGTPVAEIEVPPDTSIEELIARIRSAGGSAGGS [r12_990_TrMRF]", "kcal/mol", 2.74),
    ("FTMDEMKELADNIADNLAKEDGYKIKSVNIDATIPIPVYMKVRPDPNGEPRWEMHWMPIKVKINVEIKPPNS [r1_91_TrROS]", "kcal/mol", 2.02),
    ("SAGMNLSPEEIAERIREEAKKKYPNSEVEVRIVSQPPTTIVLEVKITIYFPEEGGSIIEEPRVITIDRLSAG [r14_187_JUSTAS]", "kcal/mol", 2.05),
    ("SAGGSAGGSKITSIQPHDGFWRIEIKPDGKPQERWINMDELPPNIKIPPGYKVKIEPFSPGDMSAGGSAGGS [r12_1005_TrROS]", "kcal/mol", -0.0148),
    ("SAGGSAGGSAKSVVRIKIYNKKTGKVLEIEIPENMTEEEIKKLAEELAKKNNVEIVEVEKVPSAGGSAGGSA [r18_322_TrROS_Hall]", "kcal/mol", 1.83),
]

###

// values below are reported folding stability dG unfold
experimental protocol: folding stability dG unfold (combined trypsin and chymotrypsin); higher = more stable

# biosequence, reading qualifier, folding stability dG unfold [kcal/mol]
rows = [
    ("SAGGSAGGVEVEADPEYEVEVFEDPETGAVVAIVKGPDEVERALRFIPETGEPVELPLEEFEPLSAGGSAGG [r6_304_TrMRF]", "<", -1),
    ("SKKKVTININITPGDPEQMEENVRWAIKEAAENDPDKEVTITIHFPPGHPEWMRWIKELFTKKGIPITIHSA [r9_1202_TrROS]", "=", 3.16),
    ("SAGGSAGGSKPELVIPITFPVLVKNPLDGKIYPVKVEIHIFYYPDKPIIEITLINPDGKPFPFSAGGSAGGS [r12_283_TrMRF]", "=", 1.93),
    ("SAMTKTETFTFDDVEITVTTTEVTLPNGEKKDVYTLTKYTVDPSTGTTTPSSKTFSSKEEMEAALKASLSAG [r14_500_JUSTAS]", "=", 3.97),
]
